biological target: recombinant cynomolgus BCMA Fc(kih) (cynomolgus, UniProt A0A2K5UD97 4-51, biotinylated in vivo at the avi-tag at the C-terminus of the Fc knob chain); assay: ratio of the SPR KDs of Table 4, human BCMA as reference
Sequence (A0A2K5UD97 entry or part of it): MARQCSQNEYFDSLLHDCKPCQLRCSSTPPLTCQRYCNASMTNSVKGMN
PARAMETER: Affinity cyno/hu gap (KD cynomolgus BCMA / KD human BCMA) (fold)

>>> recorded_number("Mab 27 IgG (antibody, V domains shown, Tested as human IgG1) VH: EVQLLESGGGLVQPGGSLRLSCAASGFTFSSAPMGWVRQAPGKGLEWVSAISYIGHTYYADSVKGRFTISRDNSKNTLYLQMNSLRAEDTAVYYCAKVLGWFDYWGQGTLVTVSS VL: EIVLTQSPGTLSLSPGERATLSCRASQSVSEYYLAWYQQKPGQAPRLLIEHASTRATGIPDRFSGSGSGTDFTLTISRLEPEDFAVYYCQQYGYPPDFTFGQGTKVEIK")
12.7
>>> recorded_number("Mab 39 IgG (antibody, V domains shown, Tested as human IgG1) VH: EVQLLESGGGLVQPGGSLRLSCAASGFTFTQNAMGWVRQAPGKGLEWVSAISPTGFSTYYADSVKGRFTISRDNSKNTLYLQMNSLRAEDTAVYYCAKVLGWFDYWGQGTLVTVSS VL: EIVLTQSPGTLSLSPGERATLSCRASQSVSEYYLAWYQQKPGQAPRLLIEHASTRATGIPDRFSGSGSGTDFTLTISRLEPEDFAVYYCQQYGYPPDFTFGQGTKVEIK")
14
>>> recorded_number("Mab 21 IgG (antibody, V domains shown, Tested as human IgG1; also called antibody 21) VH: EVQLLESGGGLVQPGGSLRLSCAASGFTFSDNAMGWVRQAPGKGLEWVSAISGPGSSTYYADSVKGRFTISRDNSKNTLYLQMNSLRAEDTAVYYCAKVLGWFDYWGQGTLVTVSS VL: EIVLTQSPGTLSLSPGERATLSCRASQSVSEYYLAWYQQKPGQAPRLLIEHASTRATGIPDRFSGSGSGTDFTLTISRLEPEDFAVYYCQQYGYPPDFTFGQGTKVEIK")
9.3
